Target: glutathione-S-transferase (GST) tagged LXRalpha LBD (ligand binding domain) (Homo sapiens, UniProt Q13133)
Construct: purchased Invitrogen pv4655
Sequence (Q13133 209-447 limits assumed): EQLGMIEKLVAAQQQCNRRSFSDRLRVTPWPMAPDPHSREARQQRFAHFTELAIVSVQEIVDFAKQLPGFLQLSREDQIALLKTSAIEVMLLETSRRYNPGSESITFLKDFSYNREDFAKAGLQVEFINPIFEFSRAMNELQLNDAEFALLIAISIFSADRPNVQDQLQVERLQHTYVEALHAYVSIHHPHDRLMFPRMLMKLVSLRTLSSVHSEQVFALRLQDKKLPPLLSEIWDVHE
Experiment: LanthaScreen TR-FRET Liver X Receptor Coactivator Assay, co-activator recruitment to LXRalpha LBD
Assay type: biochemical
Conditions: efficacy at max dose, in relation to reference dual agonist T0901317; read-out: LXR alpha Activity @ max dose (%)
Emax by entry:
MEASURED ENDPOINT: Emax (%)

In [3]: df
Out[3]:
                                   molecule  measured_endpoint  recorded_number
0  CN(C)C(=O)c1ccc(N2CCC(SC3CCN(C(=O)[C@](O)(c4cc(Cl)cc(Cl)c4)C(F)(F)F)CC3)CC2)nc1Cl [Example 9-3]               Emax               10
1  CNC(=O)c1ccc(N2CCC(CC3CCN(C(=O)C(O)(c4cccc(C)c4)C(F)(F)F)CC3)CC2)cc1Cl (stereo not drawn) [Example 7-36]               Emax               19
2  CCc1cccc([C@@](O)(C(=O)N2CC(CC3CCN(c4ccc(C(=O)N(C)C)c(Cl)c4)CC3)C2)C(F)(F)F)c1 [Example 2-64]               Emax               18
3  Cc1cc(N2CCC(CC3CCN(C(=O)[C@](O)(c4cccc(Cl)c4)C(F)(F)F)CC3)CC2)ccc1C(=O)N(C)C [Example 2-159]               Emax               22
4  CCc1cccc([C@@](O)(C(=O)N2CCC(CC3CCN(c4ccc(C(=O)N(C)C)c(Cl)c4)CC3)CC2)C(F)(F)F)c1 [Example 2-113]               Emax                4
5  CN(C)C(=O)c1ccc(N2CCC(CC3CCN(C(=O)[C@](O)(c4cccc(OC(F)(F)F)c4)C(F)(F)F)CC3)CC2)cc1 [Example 2-144]               Emax               14

====

Target: glutathione-S-transferase (GST) tagged LXRbeta LBD (ligand binding domain) (Homo sapiens, UniProt P55055)
Construct: purchased Invitrogen pv4658.pps
Sequence (P55055 222-460 limits assumed): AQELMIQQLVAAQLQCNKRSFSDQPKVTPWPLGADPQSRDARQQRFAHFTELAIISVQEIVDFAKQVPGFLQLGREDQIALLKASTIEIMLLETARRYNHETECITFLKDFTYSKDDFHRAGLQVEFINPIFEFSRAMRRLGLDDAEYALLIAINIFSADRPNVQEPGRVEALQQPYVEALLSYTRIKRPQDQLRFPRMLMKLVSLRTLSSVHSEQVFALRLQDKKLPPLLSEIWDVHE
Assay: LanthaScreen TR-FRET Liver X Receptor Coactivator Assay, co-activator recruitment to LXRbeta LBD
Assay type: biochemical
Conditions: potency (Inflection Point, IP), co-activator recruitment to LXRbeta LBD, in relation to T0901317; read-out: LXR beta IP
Description: […]
Threshold check on EC50: strictly below 20 nM is T; on or above 20 nM is F.

>>> df
                                    compound  group_label
 0  CN(C)C(=O)c1ccc(N2CCC(CC3CCN(C(=O)[C@](O)(c4cc(Cl)cc(Cl)c4)C(F)(F)F)CC3)CC2)nc1Cl [Example 7-93]            T
 1  CN(C)C(=O)c1ccc(N2CCC(CC3CCN(C(=O)[C@](O)(c4cccc(F)c4)C(F)(F)F)CC3)CC2)nc1Cl            T
 2  CNC(=O)c1ccc(N2CCC(CC3CCN(C(=O)[C@](O)(c4ccccc4)C(F)(F)F)CC3)CC2)cc1Cl [Example 7-126]            T
 3  Cc1cccc([C@@](O)(C(=O)N2CCC(CC3CCN(c4ccc(C(=O)N(C)C)cc4)CC3)CC2)C(F)(F)F)c1            F
 4  CNC(=O)c1ccc(N2CCC(CC3CCN(C(=O)[C@](O)(c4cc(Cl)cc(Cl)c4)C(F)(F)F)CC3)CC2)nc1Cl            T
 5  CN(C)C(=O)c1ccc(N2CCC(SC3CCN(C(=O)[C@](O)(c4cc(Cl)cc(Cl)c4)C(F)(F)F)CC3)CC2)nc1Cl            T
 6  COc1cccc([C@](N)(C(=O)N2CCC(CC3CCN(c4ccc(C(=O)N(C)C)c(Cl)c4)CC3)CC2)C(F)(F)F)c1            F
 7  Cc1cccc(C(O)(C(=O)N2CCC(CC3CCN(c4ccc(C(=O)N(C)C)c(C)n4)CC3)CC2)C(F)(F)F)c1 (stereo not shown)            F
 8  CN(C)C(=O)c1ccc(N2CCC(CC3CCN(C(=O)[C@](O)(c4ccccc4)C(F)(F)C(F)(F)F)CC3)CC2)nc1Cl            T
 9  CCOc1cccc(C(O)(C(=O)N2CCC(CC3CCN(c4ccc(C(=O)N(C)C)c(Cl)n4)CC3)CC2)C(F)(F)F)c1 (stereo not shown)            T
10  CCOc1cccc([C@@](O)(C(=O)N2CCC(CC3CN(c4ccc(C(=O)N(C)C)c(OC)n4)C3)CC2)C(F)(F)F)c1            F
11  Cc1cc(N2CCC(CC3CCN(C(=O)[C@](O)(c4cccc(OC(F)(F)F)c4)C(F)(F)F)CC3)CC2)ccc1C(=O)N(C)C            F
12  CN(C)C(=O)c1ccc(N2CCC(CC3CCN(C(=O)[C@](O)(c4ccccc4)C(F)(F)F)CC3)CC2)nc1Cl            T
